All values here come from ChEMBL document CHEMBL3621114.

Target: Orexin receptor type 2 (Homo sapiens) (UniProt O43614)
Assay: Agonist activity at human OX2R expressed in CHOK1 cells at 10 uM by NFAT-response luciferase reporter gene assay relative to orexin-A
Assay type: cell-based
Conditions: CHO-K1
Overview of reported Efficacy across a group of compounds:
Supply the numeric figure in %, leaving out any unit text.

Sample records with Efficacy:
COc1ccccc1C(=O)N[C@H]1CC[C@H](CNS(=O)(=O)c2cc(C(C)C)c(C)cc2OC)CC1 24
COc1ccccc1C(=O)NCCNc1cc(C)ccc1NS(=O)(=O)c1cc(C(C)C)c(C)cc1OC 9
COc1ccccc1C(=O)NCCNc1ccc(NS(=O)(=O)c2cc(C(C)C)c(C)cc2OC)cc1 18
COc1ccccc1C(=O)N1CCC(CNS(=O)(=O)c2cc(C(C)C)c(C)cc2OC)CC1 16

Please examine the following record next.
Provide measured Efficacy value, entry: COc1ccccc1C(=O)NCCNc1cccc(NS(=O)(=O)c2cc(C(C)C)c(C)cc2OC)c1
33

----------
Target: Orexin receptor type 2 (Homo sapiens) (UniProt O43614)
Test: Agonist activity at human OX2R expressed in CHOK1 cells at 10 uM by calcium mobilization assay relative to orexin-A
Details: CHO-K1
Quick rule for you: Emax at 50% or higher means label 1, lower means label 0.

Worked set:
COc1ccccc1C(=O)NCCNc1cccc(NS(=O)(=O)c2cc(-c3cccc(C(=O)N4CCC4)c3)ccc2OC)c1 label 1
COc1ccccc1C(=O)NCCNc1cccc(NS(=O)(=O)c2cc(-c3cccc(N)c3)ccc2OC)c1 label 1
COc1ccccc1C(=O)NCCNc1cccc(NS(=O)(=O)c2cc(-c3cccnc3)ccc2OC)c1 label 1
COc1ccccc1C(=O)NCCNc1cccc(NS(=O)(=O)c2cc(-c3cccc(F)c3)ccc2OC)c1 label 0

Could you tell me if the measured Emax of COc1ccccc1C(=O)NCCNc1cccc(NS(=O)(=O)c2cc(-c3ccccc3)ccc2OC)c1 reaches 50% or more?
label 0

----------
Biological target: Orexin/Hypocretin receptor type 1 (Homo sapiens) (UniProt O43613)
Assay: Agonist activity at human OX1R expressed in CHOK1 cells by calcium mobilization assay relative to orexin-A
Format: functional, cell-based
Details: CHO-K1
Reported metric: Emax (%)
Supply the numeric figure in %, leaving out any unit text.

Sample records with Emax:
COc1ccccc1C(=O)NCCNc1cccc(NS(=O)(=O)c2cc(-c3cccc(C(=O)N(C)C)c3)ccc2OC)c1 46
COc1ccc(-c2cccc(C(=O)N(C)C)c2)cc1S(=O)(=O)Nc1cccc(NCCNC(=O)c2ccccc2N(C)C)c1 55
COc1cccc(C(=O)NCCNc2cccc(NS(=O)(=O)c3cc(-c4cccc(C(=O)N(C)C)c4)ccc3OC)c2)c1 49
COc1ccc(-c2cccc(C(=O)N(C)C)c2)cc1S(=O)(=O)Nc1cccc(NCCNC(=O)c2cccc(Cl)c2)c1 73
COc1ccc(-c2cccc(C(=O)N(C)C)c2)cc1S(=O)(=O)Nc1cccc(NCCNC(=O)c2cccc(C)c2)c1 100

Please examine the following record next.
Provide measured Emax value, entry: COc1ccc(-c2cccc(C(=O)N(C)C)c2)cc1S(=O)(=O)Nc1cccc(NCCNC(=O)c2ccccc2Cl)c1
50

----------
Target: Orexin/Hypocretin receptor type 1 (Homo sapiens, UniProt O43613)
Sequence (O43613 whole entry): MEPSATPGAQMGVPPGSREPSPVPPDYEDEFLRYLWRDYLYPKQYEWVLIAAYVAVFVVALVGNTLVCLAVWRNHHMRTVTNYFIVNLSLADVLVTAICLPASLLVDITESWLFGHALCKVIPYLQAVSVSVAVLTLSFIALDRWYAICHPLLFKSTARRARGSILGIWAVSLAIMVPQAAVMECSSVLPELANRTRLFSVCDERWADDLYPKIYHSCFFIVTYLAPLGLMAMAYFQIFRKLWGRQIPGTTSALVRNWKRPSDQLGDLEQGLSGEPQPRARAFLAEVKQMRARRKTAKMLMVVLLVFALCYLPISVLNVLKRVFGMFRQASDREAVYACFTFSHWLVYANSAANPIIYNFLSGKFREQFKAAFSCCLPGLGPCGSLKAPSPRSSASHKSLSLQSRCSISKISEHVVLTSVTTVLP
Assay: Agonist activity at human OX1R expressed in CHOK1 cells by calcium mobilization assay
Type: functional, cell-based, CHO-K1
Details: read-out: EC50
Overview of reported pEC50 across a group of compounds:
Lab note — pEC50 values are minus log10 of concentrations in M.

Sample records with pEC50:
COc1cccc(C(=O)NCCNc2cccc(NS(=O)(=O)c3cc(-c4cccc(C(=O)N(C)C)c4)ccc3OC)c2)c1 5.03
COc1ccc(-c2cccc(C(=O)N(C)C)c2)cc1S(=O)(=O)Nc1cccc(NCCNC(=O)c2ccccc2N(C)C)c1 5.56
COc1ccc(-c2cccc(C(=O)N(C)C)c2)cc1S(=O)(=O)Nc1cccc(NCCNC(=O)c2ccccc2Cl)c1 5.21
COc1ccc(-c2cccc(C(=O)N(C)C)c2)cc1S(=O)(=O)Nc1cccc(NCCNC(=O)c2cccc(Cl)c2)c1 5.24

Please examine the following record next.
Provide measured pEC50 value, entry: COc1ccccc1C(=O)NCCNc1cccc(NS(=O)(=O)c2cc(-c3cccc(C(=O)N(C)C)c3)ccc2OC)c1
5.28

----------
Overview of reported pEC50 across a group of compounds:
Biological target: UniProt:O43614
Test: Agonist activity at human OX2R expressed in CHOK1 cells by calcium mobilization assay
pEC50: −log10 of the molar value.

Provide measured pEC50 value, entry: COc1ccc(-c2cccc(C(=O)N(C)C)c2)cc1S(=O)(=O)Nc1cccc(NCCNC(=O)c2ccccc2)c1
< 5.00

Provide measured pEC50 value, entry: COc1ccc(-c2cccc(C(=O)N(C)C)c2)cc1S(=O)(=O)Nc1cccc(NCCNC(=O)c2cccc(Cl)c2)c1
7.03

Provide measured pEC50 value, entry: COc1ccccc1C(=O)NCCNc1cccc(NS(=O)(=O)c2cc(-c3ccccc3)ccc2OC)c1
< 5.00

Provide measured pEC50 value, entry: COc1ccccc1C(=O)NCCNc1cccc(NS(=O)(=O)c2cc(-c3cccc(F)c3)ccc2OC)c1
< 5.00

Provide measured pEC50 value, entry: COc1ccccc1C(=O)NCCNc1cccc(NS(=O)(=O)c2cc(-c3cccc(N)c3)ccc2OC)c1
< 6.00

----------
Target: Orexin receptor type 2 (Homo sapiens) (UniProt O43614)
Experiment: Agonist activity at human OX2R expressed in CHOK1 cells at 10 uM by calcium mobilization assay relative to orexin-A
Assay type: functional, cell-based
Details: CHO-K1
Activity calls are given as the source filed them. No cut-off for these calls is given here.
Reported metric: Efficacy

COc1ccccc1C(=O)NCCNc1cccc(NS(=O)(=O)c2cc(C(C)C)c(C)cc2OC)c1 22%
COc1ccccc1C(=O)N1CCC(CNS(=O)(=O)c2cc(C(C)C)c(C)cc2OC)CC1 inactive
COc1ccccc1C(=O)N[C@H]1CC[C@H](CNS(=O)(=O)c2cc(C(C)C)c(C)cc2OC)CC1 inactive
COc1ccccc1C(=O)NCCNc1ccc(NS(=O)(=O)c2cc(C(C)C)c(C)cc2OC)cc1 12%

Provide measured Efficacy value, entry: COc1ccccc1C(=O)NCCNc1cc(C)ccc1NS(=O)(=O)c1cc(C(C)C)c(C)cc1OC
inactive

----------
Target: Orexin receptor type 2 (Homo sapiens, UniProt O43614)
Sequence (O43614 whole entry): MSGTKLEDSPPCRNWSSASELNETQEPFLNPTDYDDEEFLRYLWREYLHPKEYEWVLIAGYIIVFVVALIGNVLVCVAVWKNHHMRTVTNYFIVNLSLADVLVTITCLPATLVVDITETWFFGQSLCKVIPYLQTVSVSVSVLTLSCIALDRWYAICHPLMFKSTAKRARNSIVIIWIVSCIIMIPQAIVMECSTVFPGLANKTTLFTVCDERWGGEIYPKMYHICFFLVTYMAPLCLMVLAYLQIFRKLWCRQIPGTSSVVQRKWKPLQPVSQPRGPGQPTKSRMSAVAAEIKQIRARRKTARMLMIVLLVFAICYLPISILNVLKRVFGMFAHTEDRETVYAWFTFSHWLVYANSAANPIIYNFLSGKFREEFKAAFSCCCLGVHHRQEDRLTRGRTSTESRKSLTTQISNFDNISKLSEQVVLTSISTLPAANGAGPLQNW
Test: Agonist activity at human OX2R expressed in CHOK1 cells by calcium mobilization assay
Overview of reported pEC50 across a group of molecules:
Lab note — pEC50 values are minus log10 of concentrations in M.

Sample records with pEC50:
COc1cccc(-c2ccc(OC)c(S(=O)(=O)Nc3cccc(NCCNC(=O)c4ccccc4OC)c3)c2)c1 6.10
COc1ccc(-c2cccc(C(=O)N(C)C)c2)cc1S(=O)(=O)Nc1cccc(NCCNC(=O)c2ccccc2N(C)C)c1 7.55

Please examine the following record next.
Provide pEC50, system Orexin receptor type 2 (Homo sapiens, UniProt O43614), entry COc1ccccc1C(=O)NCCNc1cccc(NS(=O)(=O)c2cc(-c3cccc(C(=O)N4CCC4)c3)ccc2OC)c1
6.63
